Hello, the source for this data is patent US20230399342A1, in case you need it.

Listed here are compounds together with their documented IC50.
- Measured on: DGKα (Homo sapiens (Human), UniProt P23743)
- Sequence (P23743 whole entry): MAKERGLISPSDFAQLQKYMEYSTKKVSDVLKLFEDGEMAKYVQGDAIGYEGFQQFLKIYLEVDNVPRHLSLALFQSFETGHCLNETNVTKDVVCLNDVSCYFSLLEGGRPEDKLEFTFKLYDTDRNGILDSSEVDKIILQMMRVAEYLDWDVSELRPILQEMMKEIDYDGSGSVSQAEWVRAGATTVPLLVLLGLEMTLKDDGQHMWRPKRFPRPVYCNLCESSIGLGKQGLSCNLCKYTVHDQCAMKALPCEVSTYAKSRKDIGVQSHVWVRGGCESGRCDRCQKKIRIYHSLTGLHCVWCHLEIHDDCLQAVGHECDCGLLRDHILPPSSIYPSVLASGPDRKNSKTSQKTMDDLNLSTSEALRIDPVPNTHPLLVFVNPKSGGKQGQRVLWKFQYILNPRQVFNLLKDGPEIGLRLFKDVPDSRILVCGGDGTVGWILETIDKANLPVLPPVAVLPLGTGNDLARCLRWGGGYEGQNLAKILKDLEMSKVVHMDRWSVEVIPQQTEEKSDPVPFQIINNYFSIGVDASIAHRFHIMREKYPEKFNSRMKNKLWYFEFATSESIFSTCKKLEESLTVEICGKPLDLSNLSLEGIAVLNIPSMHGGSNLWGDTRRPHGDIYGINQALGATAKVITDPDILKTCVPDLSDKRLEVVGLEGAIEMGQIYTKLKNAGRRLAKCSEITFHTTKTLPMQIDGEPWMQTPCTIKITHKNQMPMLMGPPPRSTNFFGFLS
- Assay summary: In vitro DGKα inhibition assay (ADP-Glo)
- Condition notes: His-tagged human recombinant enzyme, 0.1 nM DGKα, 50 μM ATP, 20 μM DLG, 90 minute incubation

Cc1nc2c(N3C[C@@H](C)N([C@H](c4cccc(Cl)c4)C(C)C)C[C@@H]3C)nc3nncn3c2n1C[C@@H]1CCCO1 ... ≤ 20 nM
Cc1nc2c(N3C[C@@H](C)N([C@H](c4ccc(C(F)F)cc4)C(C)C)C[C@@H]3C)nc3nncn3c2n1C[C@@H]1CCCO1 ... ≤ 20 nM
C[C@@H]1CN(c2nc3nncn3c3c2ncn3C[C@@H]2CCCO2)[C@@H](C)CN1C(c1ccc(Cl)cc1)c1ccc(Cl)cc1 ... ≤ 20 nM
C[C@H]1CN(C(c2ccc(F)cc2)c2ccc(F)cc2)[C@H](CC#N)CN1c1nc2nnc(C3CC3)n2c2scnc12 ... 20 to 200 nM
Cc1nc2c(N3C[C@@H](C)N(C(c4ccc(C(F)(F)F)c(F)c4)C(C)C)C[C@@H]3C)nc3nncn3c2n1C[C@@H]1CCCO1 (stereo partly drawn) ... ≤ 20 nM

Kindly review the next compound as well.
Inquiry: For CC[C@@H]1CN(c2nc3nncn3c3c2nnn3C[C@@H]2CCCO2)[C@@H](C)CN1C(c1ccc(F)cc1)C1CC(F)(F)C1 (single isomer, unassigned) , what is its reported IC50?
Reply text: ≤ 20 nM
